System: Staphylococcus epidermidis
Test Protocol: Inhibitory activity against Methicillin-resistant Staphylococcus epidermidis UC12084
Format: functional
Threshold check on MIC: strictly below 1 µg/mL is MET; on or above 1 µg/mL is NOT MET.

Examples from the recorded data:
{"Smiles Repr": "CC(=O)NC[C@H]1CN(c2ccc(-n3ncc(C#N)n3)c(F)c2)C(=O)O1", "Category": "MET"}
{"Smiles Repr": "CC(=O)NC[C@H]1CN(c2ccc(-n3nnc(C=O)n3)c(F)c2)C(=O)O1", "Category": "NOT MET"}
{"Smiles Repr": "CC(=O)NC[C@H]1CN(c2ccc(-n3cnc(CO)n3)c(F)c2)C(=O)O1", "Category": "NOT MET"}

Confirm or reject: MIC of `CC(=O)NC[C@H]1CN(c2ccc(-n3cnc(C#N)c3)c(F)c2)C(=O)O1` lies strictly below 1 µg/mL
MET

Confirm or reject: MIC of `CC(=O)NC[C@H]1CN(c2ccc(-n3ccc(NS(C)(=O)=O)n3)c(F)c2)C(=O)O1` lies strictly below 1 µg/mL
NOT MET

Confirm or reject: MIC of `CNC(=O)c1cnn(-c2ccc(N3C[C@H](CNC(C)=O)OC3=O)cc2F)c1` lies strictly below 1 µg/mL
NOT MET

Confirm or reject: MIC of `CC(=O)NC[C@H]1CN(c2ccc(-n3cc(C#N)cn3)c(F)c2)C(=O)O1` lies strictly below 1 µg/mL
MET

Confirm or reject: MIC of `CC(=O)NC[C@H]1CN(c2ccc(-n3cc(C#N)nn3)c(F)c2)C(=O)O1` lies strictly below 1 µg/mL
MET

---

Test system: Mus musculus
Test Protocol: Dose(orally administered) required to cure 50% of Staphylococcus aureus infected mice
Type: functional
Setup Conditions: po
Readout: ED50

Past entries and their recorded results:
{"Smiles Repr": "CCOC(=O)/C=C/c1ccn(-c2ccc(N3C[C@H](CNC(C)=O)OC3=O)cc2F)c1", "ED50": "> 20 mg/kg/day"}
{"Smiles Repr": "CC(=O)NC[C@H]1CN(c2ccc(-n3ccc(C=O)c3)c(F)c2)C(=O)O1", "ED50": "> 20 mg/kg/day"}

Turning to the following compound.
What measured ED50 goes with `CC(=O)NC[C@H]1CN(c2ccc(-n3cc(C=O)nn3)c(F)c2)C(=O)O1` ?
> 20 mg/kg/day

---

System: Staphylococcus epidermidis
Test Protocol: Inhibitory activity against Methicillin-resistant Staphylococcus epidermidis UC12084
Type: functional
For each of the compounds below, state its MIC.

Dear reader, for each entry below, please note its MIC.
1. CC(=O)NC[C@H]1CN(c2ccc(-n3cnc(NC(=O)Cc4ccccc4)n3)c(F)c2)C(=O)O1
2. CC(=O)NC[C@H]1CN(c2ccc(-n3ccnc3)c(F)c2)C(=O)O1
3. CC(=O)NC[C@H]1CN(c2ccc(-n3ccnn3)c(F)c2)C(=O)O1
4. CC(=O)NC[C@H]1CN(c2ccc(-n3cc(C=O)nn3)c(F)c2)C(=O)O1
5. CC(=O)NC[C@H]1CN(c2ccc(-n3cccc3)c(F)c2)C(=O)O1

1. > 16 µg/mL
2. ≤ 0.5 µg/mL
3. ≤ 0.5 µg/mL
4. < 0.125 µg/mL
5. ≤ 0.5 µg/mL

---

Test system: Staphylococcus epidermidis
Test Protocol: Inhibitory activity against Methicillin-resistant Staphylococcus epidermidis UC12084
Type: functional
Readout: MIC

Past entries and their recorded results:
{"Smiles Repr": "CCOC(=O)CCc1ccn(-c2ccc(N3C[C@H](CNC(C)=O)OC3=O)cc2F)c1", "Tgt": "Staphylococcus epidermidis", "Endpoint Value": "1 µg/mL"}
{"Smiles Repr": "CC(=O)NC[C@H]1CN(c2ccc(-n3ccc(CCCO)c3)c(F)c2)C(=O)O1", "Tgt": "Staphylococcus epidermidis", "Endpoint Value": "1 µg/mL"}

Turning to the following compound.
What measured MIC goes with `CO/N=C(/C)c1ccn(-c2ccc(N3C[C@H](CNC(C)=O)OC3=O)cc2F)c1` ?
1 µg/mL
